For each record, write down the corresponding log P*.
assay: Determination of the logP values by HPLC on a reverse-phase column (C 18); format: physicochemical; settings: compounds of formula (I-2-b)

Inquiry: Look up and state reported log P* for CCc1cc(C)cc(CC)c1C1=C(OC(=O)C(C)(C)C)C2(CCC3(CCCO3)CC2)OC1=O (stereo not shown) [Example I-2-b-23]
Reply text: 5.62

Inquiry: Consider the compound Cc1ccc(-c2ccc(Cl)cc2)c(C)c1C1=C(OC(=O)C(C)C)C2(CCC3(CCCO3)CC2)OC1=O (stereo not shown) . State its measured log P*.
Reply text: 5.63

Inquiry: Kindly indicate its recorded log P*. Item: Cc1cc(C)c(C2=C(OC(=O)C(C)(C)C)C3(CCC4(CCCO4)CC3)OC2=O)c(C)c1 (stereo not shown) [Example I-2-b-17]
Reply text: 5.58

Inquiry: Return the recorded log P* value; entry: Cc1ccc(-c2ccc(Cl)cc2)cc1C1=C(OC(=O)C(C)C)C2(CCC3(CCCO3)CC2)OC1=O (stereo not shown) [Example I-2-b-13]
Reply text: 5.29

Inquiry: Supply reported log P* belonging to this compound: COc1cc(C)cc(C)c1C1=C(OC(=O)C(C)C)C2(CCC3(CCCO3)CC2)OC1=O (stereo not shown)
Reply text: 4.60

Inquiry: Let me know recorded log P* for Cc1cc(C)c(C2=C(OC(=O)C(C)C)C3(CCC4(CCCO4)CC3)OC2=O)c(C)c1 (stereo not shown) [Example I-2-b-8] , thanks.
Reply text: 5.12

Inquiry: Look up and report measured log P* for this entry: Cc1ccc(-c2ccc(Cl)cc2)cc1C1=C(OC(=O)C(C)C)C2(CCC3(CCCO3)CC2)OC1=O (stereo not shown) [1-2-b-11]
Reply text: 5.86

###

assay: Determination of the logP values by HPLC on a reverse-phase column (C 18); assay type: physicochemical; details: compounds of formula (I-2-b)
Would you mind labelling by log P*? At or over 5 is Fulfilled, under is Not fulfilled.

Inquiry: Dear colleague, could you confirm whether CCc1cc(C)cc(CC)c1C1=C(OC(=O)C(C)C)C2(CCC3(CCCO3)CC2)OC1=O (centres unmarked) [Example I-2-b-22] has log P* at or above 5?
Reply text: Fulfilled

Inquiry: Has Cc1ccc(-c2ccc(F)cc2)cc1C1=C(OC(=O)C(C)C)C2(CCC3(CCCO3)CC2)OC1=O (centres unmarked) [Example I-2-b-10] a recorded log P* greater than or equal to 5?
Reply text: Fulfilled

Inquiry: Does COc1cccc(C)c1C1=C(OC(=O)C(C)C)C2(CCC3(CCCO3)CC2)OC1=O (centres unmarked) [Example I-2-b-20] have a reported log P* of at least 5?
Reply text: Not fulfilled

Inquiry: Could you verify whether the entry COc1cc(C)cc(C)c1C1=C(OC(=O)C(C)(C)C)C2(CCC3(CCCO3)CC2)OC1=O (centres unmarked) shows log P* of no less than 5?
Reply text: Not fulfilled

Inquiry: State whether the measured log P* reaches 5, counting equality as reaching it, for Cc1ccc(-c2ccc(F)cc2)cc1C1=C(OC(=O)C(C)C)C2(CCC3(CCCO3)CC2)OC1=O (centres unmarked) [Example I-2-b-9]
Reply text: Not fulfilled

Inquiry: Determine whether measured log P* meets or exceeds 5 for CCc1cc(C)cc(CC)c1C1=C(OC(=O)C(C)C)C2(CCC3(CCCO3)CC2)OC1=O (centres unmarked) [Example I-2-b-24]
Reply text: Fulfilled

Inquiry: Does log P* meet or surpass 5 for Cc1ccc(C)c(C2=C(OC(=O)C(C)C)C3(CCC4(CCCO4)CC3)OC2=O)c1 (centres unmarked) [Example I-2-b-6] ?
Reply text: Not fulfilled

Inquiry: Confirm if log P* reported for the molecule COc1cccc(C)c1C1=C(OC(=O)C(C)C)C2(CCC3(CCCO3)CC2)OC1=O (centres unmarked) [Example I-2-b-18] is 5 or above.
Reply text: Not fulfilled

Inquiry: Quick check: does Cc1cc(C)c(-c2ccc(Cl)cc2)cc1C1=C(OC(=O)C(C)C)C2(CCC3(CCCO3)CC2)OC1=O (centres unmarked) [Example I-2-b-3] have log P* greater than or equal to 5?
Reply text: Fulfilled

Inquiry: Please indicate if the recorded log P* for CCc1cc(C)cc(CC)c1C1=C(OC(=O)C(C)(C)C)C2(CCC3(CCCO3)CC2)OC1=O (centres unmarked) [Example I-2-b-25] meets or exceeds 5.
Reply text: Fulfilled

Inquiry: Determine whether measured log P* meets or exceeds 5 for Cc1ccc(C)c(C2=C(OC(=O)C(C)C)C3(CCC4(CCCO4)CC3)OC2=O)c1 (centres unmarked) [Example I-2-b-5]
Reply text: Not fulfilled

Inquiry: Does the reported log P* for Cc1cc(C)c(-c2ccc(Cl)cc2)cc1C1=C(OC(=O)C(C)C)C2(CCC3(CCCO3)CC2)OC1=O (centres unmarked) [Example I-2-b-4] fall at or above the 5 mark?
Reply text: Fulfilled

Inquiry: Reported log P* reaches at least 5 for Cc1ccc(-c2ccc(Cl)cc2)c(C)c1C1=C(OC(=O)C(C)(C)C)C2(CCC3(CCCO3)CC2)OC1=O (centres unmarked) ?
Reply text: Fulfilled

Inquiry: I'd appreciate it if you could say whether COc1cccc(C)c1C1=C(OC(=O)C(C)(C)C)C2(CCC3(CCCO3)CC2)OC1=O (centres unmarked) has log P* at least equal to 5.
Reply text: Not fulfilled

Inquiry: Exam item: decide whether the reported log P* for CC(C)C(=O)OC1=C(c2cc(-c3ccc(Cl)cc3)ccc2Cl)C(=O)OC12CCC1(CCCO1)CC2 (centres unmarked) is at least 5.
Reply text: Fulfilled

Inquiry: Hi, just wondering whether Cc1cc(C)c(C2=C(OC(=O)C(C)C)C3(CCC4(CCCO4)CC3)OC2=O)c(C)c1 (centres unmarked) [Example I-2-b-7] shows log P* of 5 or higher.
Reply text: Not fulfilled

Where these numbers come from: patent US8859466B2
